Listing of entries alongside the reported pKd.
Biological target: DNA polymerase beta (full-length) (Homo sapiens) (UniProt P06746)
Assay: EMSA
Conditions: 5'-phosphate on strand 3; EMSA: 20 nM NCP, 20 mM HEPES pH 7.5, 100 mM NaCl, 1 mM EDTA, 1 mM DTT, 0.1 mg/ml BSA, 20 min, 4 °C; 5% native PAGE, 0.2x TBE
Keep it numeric: pKd is minus log10 of the concentration in mol/L.

ATCGGATGTATATATCTGACACGTGCCTGGAGACTAGGGAGTAATCCCCTTGGCGGTTAAAACGCGGGGGACAGCGCGTACGTGCGTTTAAGCGGTGCTAGAGCTGTCTACGACCAATTGAGCGGCCTCGGCACCGGGATTCTCGAT / ATCGAGAATCCCGGTGCCGAGGCCGCTCAATTGGTCGTAGACAGCTCTAGCACCGCTTAAACGCACGTACGCGCTGTCCCCCGCGTTTTAACCGCCAAGGGGATTACTCCCTAGTCTCCAGGCACGT / TCAGATATATCCATCCGAT [Gap-NCP-5.5]: 7.29
ATCGGATGTATATATCTGACACGTGCCTGGAGACTAGGGAGTAATCCCCTTGGCGGTTAAAACGCGGGGGACAGCGCGTACGTGCGTTTAAGCGGTGCTAGAGCTGTCTACGACCAATTGAGCGGCCTCGGCACCGGGATTCTCGAT / ATCGAGAATCCCGGTGCCGAGGCCGCTCAATTGGTCGTAGACAGCTCTAGCACCGCTTAAACGCACGTACGCGCTGTCCCCCGCGTTTTAACCGCCAAGGGGATTA / TCCCTAGTCTCCAGGCACGTGTCAGATATATCCATCCGAT [Gap-NCP-3.5]: 6.85
ATCGGATGTATATATCTGACACGTGCCTGGAGACTAGGGAGTAATCCCCTTGGCGGTTAAAACGCGGGGGACAGCGCGTACGTGCGTTTAAGCGGTGCTAGAGCTGTCTACGACCAATTGAGCGGCCTCGGCACCGGGATTCTCGAT / ATCGAGAATCCCGGTGCCGAGGCCGCTCAATTGGTCGTAGACAGCTCTAGCACCGCTTAAACGCACGTACGCGCTGTCCCCCGCGTTTTAACCGCCAAGGGGATTACTCCCTA / TCTCCAGGCACGTGTCAGATATATCCATCCGAT [Gap-NCP-4.5+4]: 7.03

Exercise: Form field: reported pKd of ATCGGATGTATATATCTGACACGTGCCTGGAGACTAGGGAGTAATCCCCTTGGCGGTTAAAACGCGGGGGACAGCGCGTACGTGCGTTTAAGCGGTGCTAGAGCTGTCTACGACCAATTGAGCGGCCTCGGCACCGGGATTCTCGAT / ATCGAGAATCCCGGTGCCGAGGCCGCTCAATTGGTCGTAGACAGCTCTAGCACCGCTTAAACGCACGTACGCGCTGTCCCCCGCGT / TTAACCGCCAAGGGGATTACTCCCTAGTCTCCAGGCACGTGTCAGATATATCCATCCGAT [Gap-NCP-1.5]
Key: 6.83

Exercise: Form field: reported pKd of ATCGGATGTATATATCTGACACGTGCCTGGAGACTAGGGAGTAATCCCCTTGGCGGTTAAAACGCGGGGGACAGCGCGTACGTGCGTTTAAGCGGTGCTAGAGCTGTCTACGACCAATTGAGCGGCCTCGGCACCGGGATTCTCGAT / ATCGAGAATCCCGGTGCCGAGGCCGCTCAATTGGTCGTAGACAGCTCTAGCACCGCTTAAACGCACGTACGCGCTGTCCCCCGCGTTTTAACCGC / AAGGGGATTACTCCCTAGTCTCCAGGCACGTGTCAGATATATCCATCCGAT [Gap-NCP-2.5]
Key: 6.93

Sourced from paper PMC11914125
